PROTOCOL_CONDITIONS: 318.15 K; 100 kPa; Liquid; Frequency=2 MHz; Linear variable-path acoustic interferometer
MEASUREMENT_KIND: speed of sound (m/s)

1) Nc1cccc(Cl)c1; 1464.8
2) OCCc1ccccc1; 1456.4
3) NCCO; 1653.2
4) OCCCl [1-chloro-2-hydroxyethane]; 1301.2

---

PROTOCOL_CONDITIONS: 308.15 K; 100 kPa; Liquid; Frequency=2 MHz; Linear variable-path acoustic interferometer
Measured speed of sound of individual entries
MEASUREMENT_KIND: speed of sound (m/s)

1) Nc1cccc(Cl)c1; 1501.2
2) OCCCl [1-chloro-2-hydroxyethane]; 1328.5
3) NCCO; 1685.8
4) OCCc1ccccc1; 1490.8

---

PROTOCOL_CONDITIONS: 303.15 K; 100 kPa; Liquid; Frequency=2 MHz; Linear variable-path acoustic interferometer
± gives the expanded uncertainty stated by the source.
Listed compounds paired with reported speed of sound
MEASUREMENT_KIND: speed of sound

1. OCCCl [1-chloro-2-hydroxyethane]; 1342.8 ± 8.2 m/s
2. NCCO; 1703.1 ± 10 m/s
3. Nc1cccc(Cl)c1; 1517.5 ± 9.3 m/s
4. OCCc1ccccc1; 1508.4 ± 9.2 m/s

---

PROTOCOL_CONDITIONS: 308.15 K; 100 kPa; Liquid; Capillary tube (Ostwald / Ubbelohde) method
Items are presented alongside their recorded viscosity.
MEASUREMENT_KIND: viscosity (mPa·s)

1. OCCc1ccccc1; 7.193
2. NCCO; 11.71
3. OCCCl [1-chloro-2-hydroxyethane]; 2.259
4. Nc1cccc(Cl)c1; 3.842

---

Listing of entries alongside the reported speed of sound.
PROTOCOL_CONDITIONS: 313.15 K; 100 kPa; Liquid; Frequency=2 MHz; Linear variable-path acoustic interferometer
MEASUREMENT_KIND: speed of sound (m/s)

1. OCCCl [1-chloro-2-hydroxyethane]; 1315.5
2. NCCO; 1671.2
3. Nc1cccc(Cl)c1; 1480.3
4. OCCc1ccccc1; 1470.6

---

PROTOCOL_CONDITIONS: 308.15 K; 100 kPa; Liquid; Vibrating tube method
Measured mass density accompanies every entry in the list below.
MEASUREMENT_KIND: mass density (kg/m3)

1. Nc1cccc(Cl)c1 [3-chlorobenzenamine]; 1200.75
2. OCCCl [1-chloro-2-hydroxyethane]; 1186.63
3. NCCO [2-aminoethan-1-ol]; 1004.65
4. OCCc1ccccc1 [2-phenylethanol]; 1008.63

---

PROTOCOL_CONDITIONS: 313.15 K; 100 kPa; Liquid; Capillary tube (Ostwald / Ubbelohde) method
Listing: viscosity of selected compounds
MEASUREMENT_KIND: viscosity (mPa·s)

1) Nc1cccc(Cl)c1; 3.43
2) OCCCl [1-chloro-2-hydroxyethane]; 1.852
3) OCCc1ccccc1; 6.085
4) NCCO; 9.564

---

PROTOCOL_CONDITIONS: 303.15 K; 100 kPa; Liquid; Vibrating tube method
# key: entry, value: mass density
MEASUREMENT_KIND: mass density (kg/m3)

1) Nc1cccc(Cl)c1; 1205.32
2) NCCO; 1008.72
3) OCCc1ccccc1; 1012.34
4) OCCCl [1-chloro-2-hydroxyethane]; 1192.12
